Target Under Test: Histone-lysine N-methyltransferase EHMT2 (Homo sapiens)
Test Description: qHTS Assay for Inhibitors of Histone Lysine Methyltransferase G9a; further: nearly all actives have a fitted effect of over 75% in size
Test Settings: G9a H3K9 monomethylation, AlphaScreen, 2 h; series mostly up to 59 µM
The campaign covered roughly 350,000 compounds. About 31,000 (8.9%) were called active. Roughly 15% stayed inconclusive and do not appear here. The call rests on the fitted dose curve; in most records, active means well fitted inhibition curve with a large enough effect; inconclusive means small, poorly fitted or top-dose-only effect; inactive means no such curve, though single readings can be large or run the other way. What follows is part of a selection rich in actives, with near analogues and random picks from the rest.
Pick one: y = active, n = inactive

// below: answered molecules
smiles_repr=CN1CCN(S(=O)(=O)c2ccc3[nH]cc(C(=O)O)c(=O)c3c2)CC1 assigned_category=y
smiles_repr=O=C(O)COc1nsnc1N1CCOCC1 assigned_category=n

Task: Entry "O=C(Nc1ccc2nc(SCCOc3ccccc3)sc2c1)c1ccco1" : call = ?
Result: n
